- Test system: A-431
- test name: Cytotoxicity against human A431 cells after 24 hrs by [3H]thymidine incorporation assay
- Format: functional, cell-based
Hi there, I'd appreciate the recorded IC50 for every entry that follows.
Please reply with the bare figure in nM and do not write the unit itself.

Task item: Give reported IC50 value for C=C(C(=O)O[C@@H]1[C@@H](O)[C@H](O)[C@@H](OCC2=C3C(=O)C=C(C)[C@@]34C[C@@H](CC2)C(=C)C(=O)O4)O[C@H]1CO)[C@@H]1CCC(CO)=C2C(=O)C=C(C)[C@@]2(O)C1
Reply: 700

Task item: Determine from records and report IC50 for C=C1C(=O)O[C@@H]2C[C@@H](C)[C@@H]3C=CC(=O)[C@@]3(C)[C@@H](O)[C@H]12
Reply: 900

Task item: Output IC50 of C=C1C(=O)O[C@]23C[C@H]1CCC(CO)=C2C(=O)C=C3C
Reply: 1500

---

- System: ZR-75-1
- test name: Cytotoxicity against human ZR-75-1 cells after 48 hrs by [3H]thymidine incorporation assay
- Format: functional, cell-based
Exercise: for every item that follows, state its recorded pIC50.
Would you please state pIC50, meaning minus log10 of the concentration in mol/L, as a bare number?

Task item: Annotate the molecule C=C1C(=O)O[C@@H]2C[C@@H](C)[C@@H]3C=CC(=O)[C@@]3(C)[C@@H](O)[C@H]12 with its measured pIC50.
Reply: 6.10

Task item: Hello, please tell me recorded pIC50 for this one: C=C1C(=O)O[C@]23C[C@H]1CCC(CO)=C2C(=O)C=C3C
Reply: 6.05

Task item: Supply measured pIC50 of C=C(C(=O)O[C@@H]1[C@@H](O)[C@H](O)[C@@H](OCC2=C3C(=O)C=C(C)[C@@]34C[C@@H](CC2)C(=C)C(=O)O4)O[C@H]1CO)[C@@H]1CCC(CO)=C2C(=O)C=C(C)[C@@]2(O)C1 in your reply.
Reply: 6.52

---

For each record, write down the corresponding pIC50.
- Test system: ZR-75-1
- test name: Cytotoxicity against human ZR-75-1 cells after 24 hrs by [3H]thymidine incorporation assay
- Type: functional, cell-based
Please note pIC50 is a logarithmic value: minus log10 of concentration in mol/L. Answer with that number alone.

Task item: Lab note: record pIC50 of C=C1C(=O)O[C@]23C[C@H]1CCC(CO)=C2C(=O)C=C3C tested on ZR-75-1.
Reply: 6.22

Task item: Report pIC50 from ZR-75-1 testing of C=C1C(=O)O[C@@H]2C[C@@H](C)[C@@H]3C=CC(=O)[C@@]3(C)[C@@H](O)[C@H]12
Reply: 6.15

Task item: State, for ZR-75-1, measured pIC50 of the compound listed here: C=C(C(=O)O[C@@H]1[C@@H](O)[C@H](O)[C@@H](OCC2=C3C(=O)C=C(C)[C@@]34C[C@@H](CC2)C(=C)C(=O)O4)O[C@H]1CO)[C@@H]1CCC(CO)=C2C(=O)C=C(C)[C@@]2(O)C1
Reply: 6.52

---

- Test system: HL-60
- test name: Cytotoxicity against human HL-60 cells after 5 hrs by MTT assay
- Type: functional, cell-based
- run conditions: HL-60, 5 h
Please go through the items and note down their pIC50.
// scale note: pIC50 = -log10(conc_M); give the bare number

Task item: Write down pIC50 measured for item C=C1C(=O)O[C@]23C[C@H]1CCC(CO)=C2C(=O)C=C3C
Reply: 6.59

Task item: Write down pIC50 measured for item C=C1C(=O)O[C@@H]2C[C@@H](C)[C@@H]3C=CC(=O)[C@@]3(C)[C@@H](O)[C@H]12 [HELENALIN]
Reply: 6.49

Task item: Return the recorded pIC50 value; entry: C=C(C(=O)O[C@@H]1[C@@H](O)[C@H](O)[C@@H](OCC2=C3C(=O)C=C(C)[C@@]34C[C@@H](CC2)C(=C)C(=O)O4)O[C@H]1CO)[C@@H]1CCC(CO)=C2C(=O)C=C(C)[C@@]2(O)C1
Reply: 7.00

---

- System: OVCAR-3
- test name: Cytotoxicity against human OVCAR-3 cells after 72 hrs by [3H]thymidine incorporation assay
- Format: functional, cell-based
Field: IC50. Provide a value for each of the molecules that follow.
Use nM as the unit, but write only the number.

Task item: State, in one line, measured IC50 of C=C1C(=O)O[C@@H]2C[C@@H](C)[C@@H]3C=CC(=O)[C@@]3(C)[C@@H](O)[C@H]12
Reply: 1700

Task item: Supply recorded IC50 for C=C(C(=O)O[C@@H]1[C@@H](O)[C@H](O)[C@@H](OCC2=C3C(=O)C=C(C)[C@@]34C[C@@H](CC2)C(=C)C(=O)O4)O[C@H]1CO)[C@@H]1CCC(CO)=C2C(=O)C=C(C)[C@@]2(O)C1 here.
Reply: 1000

Task item: Assign IC50 to the following record: C=C1C(=O)O[C@]23C[C@H]1CCC(CO)=C2C(=O)C=C3C
Reply: 1800
